system: Plasmodium berghei; experiment: Luciferase/luciferin-expressing antifolate-resistant parasites were used to infect a culture of HepG2 cells that were pre-incubated with compounds. Infected hepatocytes emit light due to the luciferase reaction. Assay results are presented as the percent inhibition of light emission compared to control. […]; format: functional; conditions: sporozoite, PBLUC_HILL_SLOPE 10.4, PBLUC_R_SQUARED 0.215, read-out: LUCIFERASE INFECTION ASSAY - IC50
Measured attribute: IC50 (µM)
Numbers only, in µM.

Param request: IC50 | system Plasmodium berghei | item `CN(CC(=O)Nc1ccc(Oc2ccccc2)cc1)c1c(N)n(Cc2ccccc2)c(=O)[nH]c1=O`
9.74

From: ChEMBL document CHEMBL4483862
